Measured values drawn from PubChem BioAssay (NCI) for this set.

procedure_details: NCI Yeast Anticancer Drug Screen. Data for the mlh1 rad18 strain (AID 175)
experimental_context: S. cerevisiae mlh1 rad18 strain growth inhibition; at 50.0 µM; hits give high values
This is part of a sample that, as a whole, favours compounds with a hit. Of some 79,000 tested, about 15% had one in any assay.
Recorded growth inhibition values for a group of compounds are listed next.
The figure you give is taken to be in %; do not add the unit.

// below: answered compounds
| compound | growth inhibition / % |
| --- | --- |
| N#CC1(N=Cc2ccc3c(c2)OCO3)c2ccccc2-c2ccccc21 | 4.95 |
| O=C(N/N=C\c1ccc(Cl)c(Cl)c1)c1ccncc1 | -5.7 |
| Cc1ccc(C)c2c3c(sc12)CCCC3 | 2.95 |
| N#CC(=O)Nc1cccc(Cl)c1 | -0.15 |

Entry CC(=O)Nc1ccc2c(c1)N(O)C(=O)C2(C)C needs its growth inhibition filled in; supply it. -0.6

Output growth inhibition of Cc1ccsc1/C=N/Nc1cnccn1 19.9

###

# growth inhibition per record follows
procedure_details: NCI Yeast Anticancer Drug Screen. Data for the cln2 rad14 strain (AID 165);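 also: 0% = growth equal to vehicle treated cultures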
experimental_context: S. cerevisiae cln2 rad14 strain, at 50.0 µM, hits give high values
About 79,000 compounds went through this panel and 15% of them were active in at least one assay; those are over-represented in the sample as a whole.
Return type: number; implicit unit %.

| molecule | test_readout | recorded_measurement |
| --- | --- | --- |
| Cc1cc(Cl)cc(Cl)c1OCC(=O)O | growth inhibition | -24.3 |
| c1ccc2nc(N3CCCC3)c(N3CCCC3)nc2c1 | growth inhibition | -21.4 |
| Cc1ccc(N2C(=O)/C(=C/c3ccc(N(CCC#N)CCC#N)cc3)N=C2COc2ccc(Cl)cc2Cl)cc1 | growth inhibition | -17.8 |

Could you now consider this next molecule?
Read the entry O=C(Nc1nccs1)c1cc(C2=CC=CC([N+](=O)[O-])C=C2)nc(=S)[nH]1 (centres undefined) and write its reported growth inhibition. -8.45

###

procedure_details: NCI Yeast Anticancer Drug Screen. Data for the bub3 strain (AID 167)
experimental_context: S. cerevisiae bub3 mutant strain, at 50.0 µM
This is part of a sample that, as a whole, favours compounds with a hit. Of some 79,000 tested, about 15% had one in any assay. Activity calls are given as the source filed them. Cut-off read from the data, not from the text of the source: active = growth inhibition above about 70%; inactive = the rest.
# valid calls are true for active, false for inactive; nothing else

// return assay outcome for CCC(C)OC(=S)S.[Cu+2] (stereo not given) false

For O=C(O)C1C=CC2OC2C1C(=O)O (stereo not given) , what call appears in the results of this test? false

Assay result, entry O=S(=O)(O)c1cc(S(=O)(=O)O)c2c(Nc3ccnc4ccccc34)ccc(S(=O)(=O)O)c2c1 — outcome? false

Give the logged outcome of this assay for the following compound: O=C(Nc1ccccc1-c1n[nH]c(=S)[nH]c1=O)C(F)(F)F false

I'd appreciate the recorded outcome for COC(=O)c1cc(Cl)ccc1Br from this test. false

Called result for CCOC(=O)c1ccccc1S(=O)(=O)c1ccccc1C(=O)OCC false

How was CC(C)NC(=O)C1C2CCC(C2)C1C(=O)NC(C)C (stereo not given) classified in this test? false

Which result was noted for this compound in the test: COC(=O)/C(C#N)=C/NC(=S)Nc1ccccc1 false

State the result this test recorded for CCCCOC1NC(=O)Oc2ccccc21 (stereo not given) . false

Entry O=C1Cc2c(-c3cccs3)cc(-c3ccccc3)nc2-c2ccccc2N1 : call = ? false

Each compound tested received a call. Report the one for S=c1cc(Cc2ccccc2)[nH]c(=S)[nH]1 . false

Short answer needed: outcome of this test for C/C=C(/C)C1(O)CCCCC1O (stereo not given) ? false

Call for entry O=C(Nc1c(C(=O)NC2CCCCC2)[nH]c(=O)[nH]c1=O)c1ccc(Cl)cc1 : false

Please indicate how the test categorized CC1(C)OC(=C(C#N)C#N)C(C#N)=C1/C=C/c1ccncc1 . false
